# hERG current change (%, negative = inhibition) at 10uM listing for each entry below
target: human ether-à-go-go-related gene (hERG) potassium channel (human, UniProt Q12809); test: primary screen, population patch clamp on CHO cells stably expressing hERG; higher = less effect of the substance;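 further: peak tail current of the secondary pulse compared with the same well before compound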
Sequence (Q12809 whole entry, looked up): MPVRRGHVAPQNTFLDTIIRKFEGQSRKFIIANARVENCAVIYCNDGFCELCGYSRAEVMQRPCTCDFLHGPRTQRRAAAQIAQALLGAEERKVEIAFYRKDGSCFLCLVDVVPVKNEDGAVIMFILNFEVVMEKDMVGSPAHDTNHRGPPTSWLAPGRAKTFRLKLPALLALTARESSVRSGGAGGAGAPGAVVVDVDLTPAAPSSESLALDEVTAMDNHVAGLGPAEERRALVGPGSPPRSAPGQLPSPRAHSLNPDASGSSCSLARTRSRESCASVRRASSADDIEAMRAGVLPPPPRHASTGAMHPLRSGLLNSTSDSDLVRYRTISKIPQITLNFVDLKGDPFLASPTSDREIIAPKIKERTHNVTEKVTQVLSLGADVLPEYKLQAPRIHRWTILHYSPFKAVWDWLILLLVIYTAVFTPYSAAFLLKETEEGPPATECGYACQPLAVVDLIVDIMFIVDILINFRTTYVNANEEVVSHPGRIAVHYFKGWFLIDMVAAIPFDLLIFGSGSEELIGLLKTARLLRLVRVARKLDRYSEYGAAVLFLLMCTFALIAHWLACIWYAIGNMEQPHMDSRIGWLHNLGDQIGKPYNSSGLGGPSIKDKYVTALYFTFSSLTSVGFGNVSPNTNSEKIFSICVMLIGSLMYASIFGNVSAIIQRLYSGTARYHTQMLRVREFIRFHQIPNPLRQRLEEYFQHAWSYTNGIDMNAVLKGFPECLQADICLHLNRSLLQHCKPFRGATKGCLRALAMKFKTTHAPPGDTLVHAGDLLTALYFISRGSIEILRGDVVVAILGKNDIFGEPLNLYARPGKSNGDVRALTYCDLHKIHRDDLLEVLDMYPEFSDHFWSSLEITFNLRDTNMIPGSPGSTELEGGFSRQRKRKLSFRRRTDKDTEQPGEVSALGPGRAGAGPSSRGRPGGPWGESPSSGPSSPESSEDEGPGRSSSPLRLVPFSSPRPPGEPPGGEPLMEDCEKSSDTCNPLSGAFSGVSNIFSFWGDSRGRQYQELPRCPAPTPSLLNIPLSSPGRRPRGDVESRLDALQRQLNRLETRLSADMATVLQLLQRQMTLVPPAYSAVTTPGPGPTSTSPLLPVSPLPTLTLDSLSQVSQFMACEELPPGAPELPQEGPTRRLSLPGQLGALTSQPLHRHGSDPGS
In all, about 310,000 compounds went through this assay and about 14,000 (4.5%) showed an effect of 50% or more. The effect is printed as a negative number. Many of the other results were omitted from the sample, so strong results are more common in it than they were.
measured.metric: hERG current change (%, negative = inhibition) at 10uM (%)

[
  {
    "molecule": "c1ccc(-c2nc(N3CCN(c4ccccc4)CC3)nc(-n3ccnc3)n2)cc1",
    "reported.result": -2.66
  },
  {
    "molecule": "CNC(=S)N/N=C/c1ccc(N2CCOCC2)s1",
    "reported.result": 51.6
  },
  {
    "molecule": "Cn1c(C(=O)OCC(=O)NCc2cccs2)cc2sccc21",
    "reported.result": 3.37
  },
  {
    "molecule": "O=C(O)CC1S/C(=N\\N=C2\\C(=O)Nc3ccccc32)N(c2ccc(O)cc2)C1=O (stereo not shown)",
    "reported.result": -53.7
  },
  {
    "molecule": "CS(=O)(=O)c1ccc2nc(NC(=O)c3ccc(Cn4cc(Br)cn4)o3)sc2c1",
    "reported.result": -27.1
  },
  {
    "molecule": "C=CCc1c(C)nc(SC(C)C)[nH]c1=O",
    "reported.result": -2.85
  },
  {
    "molecule": "COc1ccc(-c2cnnn2-c2ccc(NC(=O)/C=C/c3ccc(OC)c(OC)c3)cc2)cc1",
    "reported.result": -5.92
  },
  {
    "molecule": "CC(C)Nc1nc(-c2ccccc2)nc(-n2ccnc2)n1",
    "reported.result": -0.0673
  },
  {
    "molecule": "O=C(O)CC1S/C(=N\\N=C/c2ccccc2O)N(c2ccc(O)cc2)C1=O (stereo not shown)",
    "reported.result": 9.18
  },
  {
    "molecule": "Cc1ccc(N/C(N)=N/c2nc(C)cc(N3CCCCC3)n2)c(C)c1",
    "reported.result": -83
  },
  {
    "molecule": "CCn1cc(S(=O)(=O)NC(C)c2cc(OC)ccc2OC)cn1 (stereo not shown)",
    "reported.result": 1.25
  },
  {
    "molecule": "COc1ccc(OC)c(N/C(N)=N/c2nc(C)cc(C)n2)c1",
    "reported.result": -50.1
  },
  {
    "molecule": "O=C(O)Cn1c(SCCOc2ccccc2)nc2ccccc21",
    "reported.result": 0.876
  },
  {
    "molecule": "COc1ccc(C2=CC(=O)C[C@H](c3ccc(F)cc3)C2)cc1F",
    "reported.result": -16.5
  },
  {
    "molecule": "O=C(COc1ncnc2ccccc12)Nc1ccc(S(=O)(=O)N2CCOCC2)cc1",
    "reported.result": 9.94
  },
  {
    "molecule": "CCOC(=O)C1CCCN(C(=O)CCn2nnnc2CN2CCOCC2)C1 (stereo not shown)",
    "reported.result": 18.4
  },
  {
    "molecule": "Cc1ccc(C)c(N/C(N)=N/c2nc(C)cc(C)n2)c1",
    "reported.result": -34.2
  },
  {
    "molecule": "CN(C)CCN(C(=O)/C=C/c1cccs1)c1nc2c(F)cc(F)cc2s1.Cl",
    "reported.result": -47.8
  },
  {
    "molecule": "COc1ccc(Cl)cc1N/C(N)=N/c1nc(C)cc(C)n1",
    "reported.result": -84.2
  },
  {
    "molecule": "CCCNS(=O)(=O)c1ccc(OCC(=O)N2CCC(C(=O)OCC)CC2)cc1",
    "reported.result": -12.6
  },
  {
    "molecule": "O=C(NCCc1ccccc1Cl)c1cc(COc2ccc(F)cc2F)on1",
    "reported.result": 7.59
  },
  {
    "molecule": "Cc1cc(C)nc(OC(C(=O)O)C(OCc2ccccc2)(c2ccccc2)c2ccccc2)n1 (stereo not shown)",
    "reported.result": 21.7
  },
  {
    "molecule": "Cc1cccc2sc(N(CCCN(C)C)C(=O)c3ccco3)nc12.Cl",
    "reported.result": -74.9
  },
  {
    "molecule": "CN(C)CCCN(C(=O)c1ccco1)c1nc2c(F)cccc2s1.Cl",
    "reported.result": -73.2
  },
  {
    "molecule": "CC(/C=N/n1cnnc1)=C\\c1ccco1",
    "reported.result": -16.9
  },
  {
    "molecule": "Cc1ccccc1-c1noc(-c2ccc(Cl)cc2)n1",
    "reported.result": 25.1
  },
  {
    "molecule": "c1ccc(N(c2ccccc2)c2nc(-n3ccnc3)nc(-n3ccnc3)n2)cc1",
    "reported.result": -24.2
  },
  {
    "molecule": "O=C(O)CC1S/C(=N\\N=C/c2ccccc2)N(c2ccc(O)cc2)C1=O (stereo not shown)",
    "reported.result": 13.4
  },
  {
    "molecule": "O=C(N/C(=C\\c1ccco1)C(=O)N1CCCC(CO)C1)c1ccccc1 (stereo not shown)",
    "reported.result": 15.6
  },
  {
    "molecule": "COc1ccc(N(CC(=O)Nc2ccc(C)cn2)S(=O)(=O)c2c(C)noc2C)cc1",
    "reported.result": -24.8
  },
  {
    "molecule": "Cc1ccc(NC(=O)COC(=O)CCc2c[nH]c(=O)[nH]2)cc1",
    "reported.result": 1.45
  },
  {
    "molecule": "Cc1ccc(S(=O)(=O)Nc2c(C)n(C)n(-c3ccccc3)c2=O)cc1",
    "reported.result": 9.73
  },
  {
    "molecule": "COc1ccc(NC(=O)CSc2nc3ccccc3c(=O)n2CCCC(=O)NCC2CCCO2)c(OC)c1 (stereo not shown)",
    "reported.result": -33.8
  },
  {
    "molecule": "COc1ccc(OC)c(N(CC(=O)Nc2ccc3c(c2)OCCO3)S(C)(=O)=O)c1",
    "reported.result": 9.64
  },
  {
    "molecule": "O=C(NC1CCCCC1)C1CC=CCC1C(=O)OCC(Cl)=C(Cl)Cl (stereo not shown)",
    "reported.result": -20.7
  },
  {
    "molecule": "O=C(CCCn1c(SCC(=O)NCC2CCCO2)nc2ccccc2c1=O)NCc1ccccc1 (stereo not shown)",
    "reported.result": -29.6
  },
  {
    "molecule": "COc1ccc(Cl)cc1N/C(N)=N/c1nc(C)cc(=O)[nH]1",
    "reported.result": 20
  },
  {
    "molecule": "O=C(NCC(=O)N(CCN1CCOCC1)C(C(=O)NC1CCCC1)c1cccnc1)c1cccs1 (stereo not shown)",
    "reported.result": 13.1
  },
  {
    "molecule": "CN(c1ccccc1)c1nc(-n2ccnc2)nc(-n2ccnc2)n1",
    "reported.result": -67.7
  },
  {
    "molecule": "NC(=O)c1ccc(NC(=O)CSc2nc3ccccc3c(=O)n2CCCN2CCOCC2)cc1",
    "reported.result": -5.06
  }
]
